Target system: FLJ39196 clone-derived protein (human neurocalcin δ) (Homo sapiens)
Construct: A human full-length cDNA clone was expressed as a protein with an N-terminal His tag; His tag (N); made in house; host or cells: Escherichia coli BL21star(DE3)pLysS (pDEST17 Gateway expression plasmid)
Assay: SEC/MS interaction analysis (size exclusion spin column and mass analysis) with FLJ39196 clone-derived protein
Type: binding
Reported conditions: protein 23.75 μM, compound 1 μM
Observation type: spectral intensity of the compound in the SEC spin column filtrate (protein fraction)
Returns: the value as a bare number; no unit string appended.

Name the recorded spectral intensity of the compound in the SEC spin column filtrate (protein fraction) of the compound listed here: "CN1CCC(=C2c3ccccc3Sc3ccccc32)CC1"
2449690

State its spectral intensity of the compound in the SEC spin column filtrate (protein fraction) for this compound: "CCc1cc2c(s1)N(C)C(=O)CN=C2c1ccccc1Cl"
8254340

Please supply the value of reported spectral intensity of the compound in the SEC spin column filtrate (protein fraction) for the item CCCCCCCCNC(C)C(O)c1ccc(SC(C)C)cc1 (stereo not drawn)
4318261

* * *

Target system: FLJ39196 clone-derived protein (human neurocalcin δ) (Homo sapiens)
Construct: A human full-length cDNA clone was expressed as a protein with an N-terminal His tag; His tag (N); made in house; host or cells: Escherichia coli BL21star(DE3)pLysS (pDEST17 Gateway expression plasmid)
Assay: SEC/MS interaction analysis (size exclusion spin column and mass analysis) with FLJ39196 clone-derived protein
Type: binding
Reported conditions: protein 47.5 μM, compound 250 μM
Where a name gives a salt, the structure may show the parent alone.
Observation type: spectral intensity of the compound in the SEC spin column filtrate (protein fraction)
Lab note: jot down the number only; don't add units.

Solved entries (count: 3):
[
  {
    "Molecule": "OCCN1CCN(CC/C=C2/c3ccccc3Sc3ccc(C(F)(F)F)cc32)CC1 [Flupentixol cis-(Z)]",
    "Experimental result": 1766098462
  },
  {
    "Molecule": "CCOC(=O)Oc1c(OC)cc(C(=O)O[C@@H]2C[C@@H]3CN4CCc5c([nH]c6cc(OC)ccc56)[C@H]4C[C@@H]3[C@H](C(=O)OC)[C@H]2OC)cc1OC [Syrosingopine]",
    "Experimental result": 1499127775
  },
  {
    "Molecule": "Clc1ccc(C(OCCN2CCCCC2)c2ccccc2)cc1 (stereo not shown) [chloperastine]",
    "Experimental result": 1411536255
  }
]

Give spectral intensity of the compound in the SEC spin column filtrate (protein fraction) for the following molecule: O=C(c1ccc(OCCN2CCCCC2)cc1)c1c(-c2ccc(O)cc2)sc2cc(O)ccc12 [Raloxifene hydrochloride]
666932700

* * *

Target system: FLJ39196 clone-derived protein (human neurocalcin δ) (Homo sapiens)
Construct: A human full-length cDNA clone was expressed as a protein with an N-terminal His tag; His tag (N); made in house; host or cells: Escherichia coli BL21star(DE3)pLysS (pDEST17 Gateway expression plasmid)
Assay: SEC/MS interaction analysis (size exclusion spin column and mass analysis) with FLJ39196 clone-derived protein
Assay type: binding
Reported conditions: protein 47.5 μM, compound 250 μM
Observation type: spectral intensity of the compound in the SEC spin column filtrate (protein fraction)
The reply should be a number, written without any unit.

[
  {
    "Molecule": "CN1CCN(CCCN2c3ccccc3Sc3ccc(C(F)(F)F)cc32)CC1",
    "Experimental result": 2293500744
  },
  {
    "Molecule": "O=C1CN=C(c2ccccc2)c2cc(Cl)ccc2N1CC1CC1",
    "Experimental result": 706383483
  },
  {
    "Molecule": "CCc1oc2ccccc2c1C(=O)c1cc(Br)c(O)c(Br)c1",
    "Experimental result": 43413619
  },
  {
    "Molecule": "CC(O)(CS(=O)(=O)c1ccc(F)cc1)C(=O)Nc1ccc(C#N)c(C(F)(F)F)c1 (centres unmarked) [Bicaltamide]",
    "Experimental result": 112816687
  },
  {
    "Molecule": "c1ccc(-c2ccc(C(c3ccccc3)n3ccnc3)cc2)cc1 (centres unmarked)",
    "Experimental result": 322219706
  },
  {
    "Molecule": "CN1CCC(=C2c3ccccc3Sc3ccccc32)CC1",
    "Experimental result": 359356100
  },
  {
    "Molecule": "C[C@]12Cc3c[nH]nc3C[C@@H]1CC[C@@H]1[C@@H]2CC[C@@]2(C)[C@H]1CC[C@]2(C)O",
    "Experimental result": 778914733
  },
  {
    "Molecule": "Cc1cc(-c2ccccc2)nnc1NCCN1CCOCC1",
    "Experimental result": 1448860391
  }
]

Give the measured spectral intensity of the compound in the SEC spin column filtrate (protein fraction) for NS(=O)(=O)c1cc2c(cc1Cl)N=C(CSCc1ccccc1)NS2(=O)=O [Benzthiazide]
28434802

Supply spectral intensity of the compound in the SEC spin column filtrate (protein fraction) value. Item: CC(C)COCC(CN(Cc1ccccc1)c1ccccc1)N1CCCC1 (centres unmarked)
1990085657

In one line, give reported spectral intensity of the compound in the SEC spin column filtrate (protein fraction) of the entry "CCc1cc2c(s1)N(C)C(=O)CN=C2c1ccccc1Cl" .
1089985810

Item CC(C)[C@@]1(NC(=O)[C@@H]2C[C@@H]3c4cccc5[nH]cc(c45)C[C@H]3N(C)C2)O[C@@]2(O)[C@@H]3CCCN3C(=O)[C@H](Cc3ccccc3)N2C1=O [Dihydroergocristine] : provide spectral intensity of the compound in the SEC spin column filtrate (protein fraction)
2985742521

Using the record for CC(NCCC(c1ccccc1)c1ccccc1)c1ccccc1 (centres unmarked) , state its measured spectral intensity of the compound in the SEC spin column filtrate (protein fraction).
565679716

Just for reference, patent US8178077B2 is where these values come from.
